Ref: BigSolDB 2.1

Details: in isobutanol, 323.15 K
outcome-measure: solubility (mole fraction)
# output: bare number, no unit

INPUT: Bench note: what solubility (mole fraction) did `CCCN(CCC)S(=O)(=O)c1ccc(C(=O)O)cc1` show?
OUTPUT: 0.0199

---

Conditions: in methanol, 313.15 K
outcome-measure: solubility (mole fraction)

INPUT: Would you kindly share the measured solubility (mole fraction) for `CCCN(CCC)S(=O)(=O)c1ccc(C(=O)O)cc1` ?
OUTPUT: 0.0166

---

Settings: in MTBE, 318.15 K
outcome-measure: solubility (mole fraction)
// print number alone

INPUT: Please give the measured solubility (mole fraction) for this compound: `CCCN(CCC)S(=O)(=O)c1ccc(C(=O)O)cc1`
OUTPUT: 0.0156

---

Settings: in methanol, 303.15 K
outcome-measure: solubility (mole fraction)
Returns: the value as a bare number; no unit string appended.

INPUT: Recorded solubility (mole fraction) for `CCCN(CCC)S(=O)(=O)c1ccc(C(=O)O)cc1` , please?
OUTPUT: 0.0105

---

Details: in n-propanol, 283.15 K
outcome-measure: solubility (mole fraction)

INPUT: Could you share which solubility (mole fraction) value was measured for `CCCN(CCC)S(=O)(=O)c1ccc(C(=O)O)cc1` ?
OUTPUT: 0.00544

---

Conditions: in methyl acetate, 313.15 K
outcome-measure: solubility (mole fraction)
Output: the number by itself.

INPUT: Please look up its solubility (mole fraction): `CCCN(CCC)S(=O)(=O)c1ccc(C(=O)O)cc1`
OUTPUT: 0.0129

---

Conditions: in n-pentanol, 288.15 K
outcome-measure: solubility (mole fraction)

INPUT: Which measured solubility (mole fraction) value corresponds to `CCCN(CCC)S(=O)(=O)c1ccc(C(=O)O)cc1` ?
OUTPUT: 0.0103

---

Settings: in ethyl acetate, 283.15 K
outcome-measure: solubility (mole fraction)
The answer should be written as a number, with no unit following it.

INPUT: State the recorded solubility (mole fraction) for this entry: `CCCN(CCC)S(=O)(=O)c1ccc(C(=O)O)cc1`
OUTPUT: 0.00382

---

Details: in ethanol, 303.15 K
outcome-measure: solubility (mole fraction)
Just the number.

INPUT: // solubility (mole fraction) lookup, key: `CCCN(CCC)S(=O)(=O)c1ccc(C(=O)O)cc1`
OUTPUT: 0.0117

---

Settings: in n-propanol, 288.15 K
outcome-measure: solubility (mole fraction)
Write no unit; give the number alone.

INPUT: Consider the molecule shown here: `CCCN(CCC)S(=O)(=O)c1ccc(C(=O)O)cc1` What is its recorded solubility (mole fraction)?
OUTPUT: 0.00656

---

Settings: in n-propanol, 298.15 K
outcome-measure: solubility (mole fraction)
Answer with a bare number; do not write a unit.

INPUT: I'd like to know its solubility (mole fraction). The compound in question is `CCCN(CCC)S(=O)(=O)c1ccc(C(=O)O)cc1`
OUTPUT: 0.0108

---

Conditions: in n-propanol, 323.15 K
outcome-measure: solubility (mole fraction)
Write the number on its own, no unit after it.

INPUT: What solubility (mole fraction) value was documented for this compound, `CCCN(CCC)S(=O)(=O)c1ccc(C(=O)O)cc1` ?
OUTPUT: 0.0289

---

Conditions: in methanol, 298.15 K
outcome-measure: solubility (mole fraction)
Give the figure by itself; no unit, no explanation.

INPUT: Which solubility (mole fraction) is listed for `CCCN(CCC)S(=O)(=O)c1ccc(C(=O)O)cc1` ?
OUTPUT: 0.00804
